Test system: cerebral metabolism of serotonin
assay_remarks: Percent increase in cerebral endogenic level of 5-HTP, 5-HT and 5-HIAA in the rat after intragastric administration
Assay type: in vivo
condition: 10 mg/kg, 1 hour
observable: Percent increase in cerebral endogenic level of (L)-5-HTP (%)

compound	unit	readout_number
NC(Cc1c[nH]c2ccc(O)cc12)C(=O)O.O.O=c1[nH]cnc2c1ncn2[C@@H]1O[C@H](CO)[C@@H](O)[C@H]1O (racemic) [Example 2, (DL) 5-HYDROXYTRYPTOPHANE INOSINATE]	%	110
N[C@@H](Cc1c[nH]c2ccc(O)cc12)C(=O)O [Example 4]	%	55
N[C@@H](Cc1c[nH]c2ccc(O)cc12)C(=O)O.O.O=c1[nH]cnc2c1ncn2[C@@H]1O[C@H](CO)[C@@H](O)[C@H]1O [Example 1, (L)-5-HTP INOSINATE]	%	135
N[C@@H](Cc1c[nH]c2ccc(O)cc12)C(=O)O [(L)-5-HTP pure, (L)-5-hydroxytryptophane, reference compound]	%	120
Cc1ncc(CO)c(CO)c1O.Cl.N[C@@H](Cc1c[nH]c2ccc(O)cc12)C(=O)O	%	190

---

This listing pairs compounds with measured Percent increase in cerebral endogenic level of 5-HT.
Tested on: cerebral metabolism of serotonin
assay_remarks: Percent increase in cerebral endogenic level of 5-HTP, 5-HT and 5-HIAA in the rat after intragastric administration
Format: in vivo
condition: 25 mg/kg, 1 hour
observable: Percent increase in cerebral endogenic level of 5-HT (%)

compound	study_target	readout_number
N[C@@H](Cc1c[nH]c2ccc(O)cc12)C(=O)O [Example 4]	cerebral metabolism of serotonin	25
N[C@@H](Cc1c[nH]c2ccc(O)cc12)C(=O)O.O.O=c1[nH]cnc2c1ncn2[C@@H]1O[C@H](CO)[C@@H](O)[C@H]1O [Example 1, (L)-5-HTP INOSINATE]	cerebral metabolism of serotonin	100
N[C@@H](Cc1c[nH]c2ccc(O)cc12)C(=O)O [(L)-5-HTP pure, (L)-5-hydroxytryptophane, reference compound]	cerebral metabolism of serotonin	25
NC(Cc1c[nH]c2ccc(O)cc12)C(=O)O.O.O=c1[nH]cnc2c1ncn2[C@@H]1O[C@H](CO)[C@@H](O)[C@H]1O (racemic) [Example 2, (DL) 5-HYDROXYTRYPTOPHANE INOSINATE]	cerebral metabolism of serotonin	80
Cc1ncc(CO)c(CO)c1O.Cl.N[C@@H](Cc1c[nH]c2ccc(O)cc12)C(=O)O	cerebral metabolism of serotonin	80

---

assay_remarks: Toxicity, LD50 per os/mice
Assay type: in vivo
condition: mouse, in vivo, po, mice

compound	LD50
N[C@@H](Cc1c[nH]c2ccc(O)cc12)C(=O)O [Example 10, NI[…] OF (L)-5-HYDROXYTRYPTOPHANE]	> 2000 mg/kg

---

Tested on: cerebral metabolism of serotonin
assay_remarks: Percent increase in cerebral endogenic level of 5-HTP, 5-HT and 5-HIAA in the rat after intragastric administration
Assay type: in vivo
condition: 10 mg/kg, 1 hour
observable: Percent increase in cerebral endogenic level of 5-HT (%)

compound	study_target	readout_number
N[C@@H](Cc1c[nH]c2ccc(O)cc12)C(=O)O.O.O=c1[nH]cnc2c1ncn2[C@@H]1O[C@H](CO)[C@@H](O)[C@H]1O [Example 1, (L)-5-HTP INOSINATE]	cerebral metabolism of serotonin	2
Cc1ncc(CO)c(CO)c1O.Cl.N[C@@H](Cc1c[nH]c2ccc(O)cc12)C(=O)O	cerebral metabolism of serotonin	20
NC(Cc1c[nH]c2ccc(O)cc12)C(=O)O.O.O=c1[nH]cnc2c1ncn2[C@@H]1O[C@H](CO)[C@@H](O)[C@H]1O (racemic) [Example 2, (DL) 5-HYDROXYTRYPTOPHANE INOSINATE]	cerebral metabolism of serotonin	2
N[C@@H](Cc1c[nH]c2ccc(O)cc12)C(=O)O [(L)-5-HTP pure, (L)-5-hydroxytryptophane, reference compound]	cerebral metabolism of serotonin	10

---

Test system: cerebral metabolism of serotonin
assay_remarks: Percent increase in cerebral endogenic level of 5-HTP, 5-HT and 5-HIAA in the rat after intragastric administration
Format: in vivo
condition: 50 mg/kg, 1 hour
observable: Percent increase in cerebral endogenic level of (L)-5-HTP (%)

compound	study_target	unit	readout_number
NC(Cc1c[nH]c2ccc(O)cc12)C(=O)O.O.O=c1[nH]cnc2c1ncn2[C@@H]1O[C@H](CO)[C@@H](O)[C@H]1O (racemic) [Example 2, (DL) 5-HYDROXYTRYPTOPHANE INOSINATE]	cerebral metabolism of serotonin	%	1955
N[C@@H](Cc1c[nH]c2ccc(O)cc12)C(=O)O [Example 4]	cerebral metabolism of serotonin	%	1710
N[C@@H](Cc1c[nH]c2ccc(O)cc12)C(=O)O [(L)-5-HTP pure, (L)-5-hydroxytryptophane, reference compound]	cerebral metabolism of serotonin	%	650
Cc1ncc(CO)c(CO)c1O.Cl.N[C@@H](Cc1c[nH]c2ccc(O)cc12)C(=O)O	cerebral metabolism of serotonin	%	2500
N[C@@H](Cc1c[nH]c2ccc(O)cc12)C(=O)O.O.O=c1[nH]cnc2c1ncn2[C@@H]1O[C@H](CO)[C@@H](O)[C@H]1O [Example 1, (L)-5-HTP INOSINATE]	cerebral metabolism of serotonin	%	2665

---

System: cerebral metabolism of serotonin
assay_remarks: Percent increase in cerebral endogenic level of 5-HTP, 5-HT and 5-HIAA in the rat after intragastric administration
Assay type: in vivo
condition: 10 mg/kg, 1 hour
Decide by Percent increase in cerebral endogenic level of 5-Ht + 5-HIAA: equal to or exceeding 60% means True, less means False.

molecule	assigned_category
N[C@@H](Cc1c[nH]c2ccc(O)cc12)C(=O)O [(L)-5-HTP pure, (L)-5-hydroxytryptophane, reference compound]	False
Cc1ncc(CO)c(CO)c1O.Cl.N[C@@H](Cc1c[nH]c2ccc(O)cc12)C(=O)O	False
N[C@@H](Cc1c[nH]c2ccc(O)cc12)C(=O)O [Example 4]	True
N[C@@H](Cc1c[nH]c2ccc(O)cc12)C(=O)O.O.O=c1[nH]cnc2c1ncn2[C@@H]1O[C@H](CO)[C@@H](O)[C@H]1O [Example 1, (L)-5-HTP INOSINATE]	True
NC(Cc1c[nH]c2ccc(O)cc12)C(=O)O.O.O=c1[nH]cnc2c1ncn2[C@@H]1O[C@H](CO)[C@@H](O)[C@H]1O (racemic) [Example 2, (DL) 5-HYDROXYTRYPTOPHANE INOSINATE]	True

---

assay_remarks: Aqueous solubility
condition: water

molecular_string	solubility
N[C@@H](Cc1c[nH]c2ccc(O)cc12)C(=O)O	3.5 mg/mL
